Target: Progesterone receptor (Homo sapiens) (UniProt P06401)
Sequence (P06401 whole entry): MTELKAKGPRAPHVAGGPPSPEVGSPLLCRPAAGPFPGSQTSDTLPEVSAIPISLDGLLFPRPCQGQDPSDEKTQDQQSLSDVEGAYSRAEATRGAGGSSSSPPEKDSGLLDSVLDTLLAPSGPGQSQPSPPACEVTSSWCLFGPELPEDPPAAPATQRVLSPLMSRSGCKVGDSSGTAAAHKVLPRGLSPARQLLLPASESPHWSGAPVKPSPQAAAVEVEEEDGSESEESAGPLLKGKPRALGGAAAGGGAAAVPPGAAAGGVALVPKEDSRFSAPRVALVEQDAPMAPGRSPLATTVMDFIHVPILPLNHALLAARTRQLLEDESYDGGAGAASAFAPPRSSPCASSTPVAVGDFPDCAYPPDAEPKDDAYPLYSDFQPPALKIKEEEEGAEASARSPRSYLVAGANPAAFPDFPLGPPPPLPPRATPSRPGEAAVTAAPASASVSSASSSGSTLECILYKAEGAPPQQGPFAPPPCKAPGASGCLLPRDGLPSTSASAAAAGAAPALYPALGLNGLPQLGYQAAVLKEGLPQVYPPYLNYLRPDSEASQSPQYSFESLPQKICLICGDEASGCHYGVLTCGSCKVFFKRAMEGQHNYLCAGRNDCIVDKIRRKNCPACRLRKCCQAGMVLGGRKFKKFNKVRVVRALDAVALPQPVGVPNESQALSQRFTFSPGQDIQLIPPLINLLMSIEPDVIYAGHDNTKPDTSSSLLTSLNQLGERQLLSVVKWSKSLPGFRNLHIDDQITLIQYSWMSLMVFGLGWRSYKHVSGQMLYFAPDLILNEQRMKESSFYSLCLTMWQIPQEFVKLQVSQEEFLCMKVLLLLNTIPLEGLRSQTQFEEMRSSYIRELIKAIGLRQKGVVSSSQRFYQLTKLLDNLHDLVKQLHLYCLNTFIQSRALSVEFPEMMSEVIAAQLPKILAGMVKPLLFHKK
Experiment: Antagonist activity at progesterone receptor in human T47D cells assessed as inhibition of progesterone-induced alkaline phosphatase activity at 100 uM
Assay type: functional, cell-based
# inhibition >= 30% gives MET, anything below gives NOT MET

Query: Quick check, inhibition >= 30%? O=C1CCC(N2C(=O)c3ccc(O)cc3C2=O)C(=O)N1O (configuration not stated)
Result: MET

Query: Similarly, `O=C1Cc2ccccc2C(=O)N1c1ccccc1` ?
Result: NOT MET

Query: Similarly, O=C1CCC(N2C(=O)c3ccccc3C2=O)C(=O)N1O (configuration not stated) ?
Result: MET

Query: Similarly, `O=c1[nH]c2ccccc2c(=O)n1-c1ccccc1` ?
Result: MET
